Measurement Target: WT 5-12 G-quadruplex of hTERT core promoter (FAM/TAMRA probe)
Assay Protocol: FRET assay for compound screening and Kd, WT probe
Assay Setup: WT probe, FAM- and TAMRA-labeled oligomer

- Chemical String: "N=C(N)NCCCS(=O)(=O)Nc1ccc(Nc2c3ccccc3nc3cc([N+](=O)[O-])ccc23)cc1"
  Measurement Target: "WT 5-12 G-quadruplex of hTERT core promoter (FAM/TAMRA probe)"
  Kd: "~400 nM"

###

Measurement Target: G124/125A 5-12 G-quadruplex of hTERT core promoter
Assay Protocol: FRET assay for Kd, G124/125A probe
Quantity Name: Kd

- Chemical String: "N=C(N)NCCCS(=O)(=O)Nc1ccc(Nc2c3ccccc3nc3cc([N+](=O)[O-])ccc23)cc1"
  Quantity Name: "Kd"
  Experimental Result: "~400 nM"
